System tested: GluN1/GluN2B receptors (Rattus norvegicus, UniProt P35439+Q00960)
Sequence (Q00960 27-1482, other chains not shown): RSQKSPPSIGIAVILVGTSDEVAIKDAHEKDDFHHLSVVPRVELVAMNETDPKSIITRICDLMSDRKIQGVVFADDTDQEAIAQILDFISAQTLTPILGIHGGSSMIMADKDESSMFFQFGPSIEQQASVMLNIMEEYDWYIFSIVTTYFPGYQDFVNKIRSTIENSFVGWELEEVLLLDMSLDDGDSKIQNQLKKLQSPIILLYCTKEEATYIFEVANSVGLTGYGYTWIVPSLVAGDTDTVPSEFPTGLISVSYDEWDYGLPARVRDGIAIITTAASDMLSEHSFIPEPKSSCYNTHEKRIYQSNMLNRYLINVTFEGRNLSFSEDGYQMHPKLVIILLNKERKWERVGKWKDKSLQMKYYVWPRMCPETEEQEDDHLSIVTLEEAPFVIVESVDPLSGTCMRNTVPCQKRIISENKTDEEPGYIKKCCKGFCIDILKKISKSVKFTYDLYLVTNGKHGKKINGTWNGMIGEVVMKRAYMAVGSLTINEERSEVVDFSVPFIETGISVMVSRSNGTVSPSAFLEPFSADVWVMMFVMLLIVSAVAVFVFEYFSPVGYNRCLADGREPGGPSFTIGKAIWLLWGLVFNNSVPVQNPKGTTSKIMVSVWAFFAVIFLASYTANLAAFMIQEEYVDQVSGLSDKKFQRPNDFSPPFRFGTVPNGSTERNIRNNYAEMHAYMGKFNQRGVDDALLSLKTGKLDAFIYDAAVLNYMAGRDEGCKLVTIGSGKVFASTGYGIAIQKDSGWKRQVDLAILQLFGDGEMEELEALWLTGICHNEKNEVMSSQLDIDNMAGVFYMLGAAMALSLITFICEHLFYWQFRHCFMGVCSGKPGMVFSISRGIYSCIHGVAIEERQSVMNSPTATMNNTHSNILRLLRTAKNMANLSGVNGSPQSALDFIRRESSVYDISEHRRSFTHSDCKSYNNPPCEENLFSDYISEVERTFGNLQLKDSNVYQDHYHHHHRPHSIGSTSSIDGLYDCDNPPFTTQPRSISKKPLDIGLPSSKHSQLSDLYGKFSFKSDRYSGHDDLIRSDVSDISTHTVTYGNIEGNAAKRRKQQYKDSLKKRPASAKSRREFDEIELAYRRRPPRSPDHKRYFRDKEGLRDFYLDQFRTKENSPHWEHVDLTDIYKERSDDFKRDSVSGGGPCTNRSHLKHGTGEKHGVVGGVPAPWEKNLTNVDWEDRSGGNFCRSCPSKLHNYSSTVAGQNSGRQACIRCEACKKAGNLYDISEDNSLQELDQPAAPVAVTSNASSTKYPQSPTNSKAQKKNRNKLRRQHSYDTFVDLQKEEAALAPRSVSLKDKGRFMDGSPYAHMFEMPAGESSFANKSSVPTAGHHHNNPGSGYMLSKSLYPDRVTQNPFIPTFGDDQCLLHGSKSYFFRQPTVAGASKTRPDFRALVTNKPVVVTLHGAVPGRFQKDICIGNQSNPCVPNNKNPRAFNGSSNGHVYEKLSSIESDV
Test protocol: Whole-cell patch-clamp of GluN1/GluN2B receptor responses in transfected HEK293 cells
Assay conditions: WT, PA-A 20 μM, fit to the Boltzmann equation; read-out: Kd(0 mV)
Experimental endpoint: pKd
Bear in mind: pKd is minus log10 of a mol/L concentration; give just that figure.

Prompt: Lab note: need pKd for CC(=O)C1CCC2C3CC[C@@H]4C[C@H](OC(=O)C[N+](C)(C)C)CC[C@]4(C)C3CC[C@]12C (stereo partly shown) on GluN1/GluN2B receptors (Rattus norvegicus, UniProt P35439+Q00960), anyone have it?
Response: 3.47
